- protocol.notes: refractive index (Na D-line) (dimensionless)
- run.conditions: 293.15 K; 101.33 kPa; Liquid; Standard Abbe refractometry
The reader will find reported refractive index values listed item by item below.
measured.metric: refractive index

INSERT INTO assay_data (compound, reported) VALUES
  ('CC(=O)CC(C)=O [2,4-pentanedione]', 1.4489),
  ('CCOC(C)=O [ethyl acetate]', 1.3701),
  ('C1CCCCC1 [cyclohexane]', 1.4259),
  ('O [water]', 1.3327);

---

Reported mass density values are given for each entry in this list.
- run.conditions: 298.15 K; 101.33 kPa; Liquid; Vibrating tube method
Numbers after ± are expanded uncertainties.
measured.metric: mass density

INSERT INTO results (compound, measured_metric, reported) VALUES
  ('O', 'mass density', '996.8 ± 0.2 kg/m3'),
  ('CCOC(C)=O [ethyl acetate]', 'mass density', '894.6 ± 0.2 kg/m3'),
  ('C1CCCCC1', 'mass density', '773.4 ± 0.2 kg/m3'),
  ('CC(=O)CC(C)=O', 'mass density', '971.7 ± 0.2 kg/m3');
